tested on: hEPO; assay: Quantification of hEPO in serum after IV injection of mRNA (Human EPO ELISA); type: in vivo; settings: Balb/c mice, 2.5 μg mRNA IV, serum after 6 hours
Non-standard residues stand in square brackets, D forms with d. Residues, ends and D or L forms follow the SMILES beside them. N(3-lauroyloxypropyl)Gly = CCCCCCCCCCCC(=O)OCCCNCC(=O)O; N(3-imidazol-1-ylpropyl)Gly = O=C(O)CNCCCn1ccnc1; N(2-ethylhexyl)Gly = CCCCC(CC)CNCC(=O)O; N(CH(CH2OH)2)Gly = O=C(O)CNC(CO)CO
measurement type: hEPO (ng/mL)
Report only the number, with the unit ng/mL understood.

[[record]]
compound = "CCCCCCCCCCCC(=O)OCCCN(CC(=O)N(CC(=O)N(CC(=O)N(CCCOC(=O)CCCCCCCCCCC)CC(=O)N(CC(N)=O)CC(CC)CCCC)CC(CC)CCCC)CC(CC)CCCC)C(=O)CN(CC(CC)CCCC)C(=O)CNC(CO)CO (centres unmarked) [Compound 6] (H-[N(CH(CH2OH)2)Gly][N(2-ethylhexyl)Gly][N(3-lauroyloxypropyl)Gly][N(2-ethylhexyl)Gly][N(2-ethylhexyl)Gly][N(3-lauroyloxypropyl)Gly][N(2-ethylhexyl)Gly]-NH2)"
measurement_type = "hEPO"
unit_text = "ng/mL"
observed_value = 245


Now for a further compound.
Given the compound CCCCCCCCCCCC(=O)OCCCN(CC(=O)N(CCCOC(=O)CCCCCCCCCCC)CC(=O)N(CC(=O)N(CCCOC(=O)CCCCCCCCCCC)CC(=O)N(CCCOC(=O)CCCCCCCCCCC)CC(=O)N(CC(N)=O)CC(CC)CCCC)CC(CC)CCCC)C(=O)CNCCCn1ccnc1 (centres unmarked) [Compound 68] (H-[N(3-imidazol-1-ylpropyl)Gly][N(3-lauroyloxypropyl)Gly][N(3-lauroyloxypropyl)Gly][N(2-ethylhexyl)Gly][N(3-lauroyloxypropyl)Gly][N(3-lauroyloxypropyl)Gly][N(2-ethylhexyl)Gly]-NH2) , what is its reported hEPO? 72.6

----------
system: mRNA; assay: mRNA encapsulation (modified Quant-iT RiboGreen assay); type: physicochemical; settings: RiboGreen, without vs with Triton X-100
Non-standard residues stand in square brackets, D forms with d. Residues, ends and D or L forms follow the SMILES beside them. *: point of attachment. N(3-lauroyloxypropyl)Gly = CCCCCCCCCCCC(=O)OCCCNCC(=O)O; Gly(N-(CH2)3O-octanoyl) = CCCCCCCC(=O)OCCCNCC(=O)O; Gly(N-3-morpholinopropyl) = O=C(O)CNCCCN1CCOCC1; N(2-ethylhexyl)Gly = CCCCC(CC)CNCC(=O)O; N(CH(CH2OH)2)Gly = O=C(O)CNC(CO)CO; N(octyl)Gly = CCCCCCCCNCC(=O)O; For = O=C*
# mean percent encapsulation of RNA values compiled below
Record the result as number plus unit.

[[record]]
compound = "CCCCCCCCCCCC(=O)OCCCN(CC(=O)N(CC(N)=O)CC(CC)CCCC)C(=O)CN(CCCCCCCC)C(=O)CN(CC(CC)CCCC)C(=O)CN(CCCOC(=O)CCCCCCCCCCC)C(=O)CN(CCCCCCCC)C(=O)CN(C=O)CCCN1CCOCC1 (centres unmarked) [Compound 74] (For-[Gly(N-3-morpholinopropyl)][N(octyl)Gly][N(3-lauroyloxypropyl)Gly][N(2-ethylhexyl)Gly][N(octyl)Gly][N(3-lauroyloxypropyl)Gly][N(2-ethylhexyl)Gly]-NH2)"
observed_value = "67.6%"


Consider now this further compound.
For the record CCCCCCCC(=O)OCCCN(CC(=O)N(CC(=O)N(CC(=O)N(CCCOC(=O)CCCCCCC)CC(=O)N(CC(N)=O)CC(CC)CCCC)CC(CC)CCCC)CC(CC)CCCC)C(=O)CN(CC(CC)CCCC)C(=O)CNC(CO)CO (centres unmarked) [Compound 4] (H-[N(CH(CH2OH)2)Gly][N(2-ethylhexyl)Gly][Gly(N-(CH2)3O-octanoyl)][N(2-ethylhexyl)Gly][N(2-ethylhexyl)Gly][Gly(N-(CH2)3O-octanoyl)][N(2-ethylhexyl)Gly]-NH2) , what value of mean percent encapsulation of RNA is listed for mRNA? 94.6%

----------
// reported PDI for each item listed
test: Delivery vehicle size and polydispersity by dynamic light scattering; type: physicochemical; conditions: DLS in PBS; peptoid:DSPC:Cholesterol:DMG-PEG2000 weight ratio 20:1.79:7.16:1.84, mRNA
Non-standard residues stand in square brackets, D forms with d. Residues, ends and D or L forms follow the SMILES beside them. *: point of attachment. Gly(N-(3-decanoyloxypropyl)) = CCCCCCCCCC(=O)OCCCNCC(=O)O; Gly(N-(CH2)3O-octanoyl) = CCCCCCCC(=O)OCCCNCC(=O)O; Gly(N-3-morpholinopropyl) = O=C(O)CNCCCN1CCOCC1; N(2-ethylhexyl)Gly = CCCCC(CC)CNCC(=O)O; Gly(N-dodecyl) = CCCCCCCCCCCCNCC(=O)O; N(CH(CH2OH)2)Gly = O=C(O)CNC(CO)CO; For = O=C*
When you answer, write just the number.

Request the reported PDI associated with CCCCCCCCCCCCN(C=O)CC(=O)N(CCCOC(=O)CCCCCCC)CC(=O)N(CC(=O)N(CCCN1CCOCC1)CC(=O)N(CC(=O)N(CCCOC(=O)CCCCCCC)CC(=O)N(CCCCCCCCCCCC)CC(N)=O)CC(CC)CCCC)CC(CC)CCCC (stereo not drawn) [Compound 116] (For-[Gly(N-dodecyl)][Gly(N-(CH2)3O-octanoyl)][N(2-ethylhexyl)Gly][Gly(N-3-morpholinopropyl)][N(2-ethylhexyl)Gly][Gly(N-(CH2)3O-octanoyl)][Gly(N-dodecyl)]-NH2) 1.000

Please report the recorded PDI for CCCCCCCC(=O)OCCCN(CC(=O)N(CC(=O)N(CC(=O)N(CCCOC(=O)CCCCCCC)CC(=O)N(CC(N)=O)CC(CC)CCCC)CC(CC)CCCC)CC(CC)CCCC)C(=O)CN(CC(CC)CCCC)C(=O)CNC(CO)CO (stereo not drawn) [Compound 4] (H-[N(CH(CH2OH)2)Gly][N(2-ethylhexyl)Gly][Gly(N-(CH2)3O-octanoyl)][N(2-ethylhexyl)Gly][N(2-ethylhexyl)Gly][Gly(N-(CH2)3O-octanoyl)][N(2-ethylhexyl)Gly]-NH2) . 0.113

// query PDI value for entry CCCCCCCCCC(=O)OCCCN(CC(N)=O)C(=O)CN(CC(CC)CCCC)C(=O)CN(CCCOC(=O)CCCCCCCCC)C(=O)CN(CCCOC(=O)CCCCCCCCC)C(=O)CN(CCCOC(=O)CCCCCCCCC)C(=O)CN(CC(CC)CCCC)C(=O)CNC(CO)CO (stereo not drawn) [Compound 103] (H-[N(CH(CH2OH)2)Gly][N(2-ethylhexyl)Gly][Gly(N-(3-decanoyloxypropyl))][Gly(N-(3-decanoyloxypropyl))][Gly(N-(3-decanoyloxypropyl))][N(2-ethylhexyl)Gly][Gly(N-(3-decanoyloxypropyl))]-NH2) 0.111

----------
experiment: Delivery vehicle size and polydispersity by dynamic light scattering; format: physicochemical; details: DLS in PBS; peptoid:DSPC:Cholesterol:DMG-PEG2000 weight ratio 20:1.79:7.16:1.84, mRNA
Starred links: 1 amine or outer side, 2 acyl side, 3 side chain; linkers in the order of their positions; H or OH if unused. Non-standard residues stand in square brackets, D forms with d. Residues, ends and D or L forms follow the SMILES beside them. *: point of attachment. Gly(N-(3-decanoyloxypropyl)) = CCCCCCCCCC(=O)OCCCNCC(=O)O; N(3-lauroyloxypropyl)Gly = CCCCCCCCCCCC(=O)OCCCNCC(=O)O; Gly(N-(CH2)3O-octanoyl) = CCCCCCCC(=O)OCCCNCC(=O)O; N(3-imidazol-1-ylpropyl)Gly = O=C(O)CNCCCn1ccnc1; Gly(N-3-morpholinopropyl) = O=C(O)CNCCCN1CCOCC1; N(2-ethylhexyl)Gly = CCCCC(CC)CNCC(=O)O; X6 = CCCCCCCC(=O)OCCN(CC(=O)[*:2])[*:1]; X1 = CCCCC(CC)CSSCCN(CC(=O)[*:2])[*:1]; N(CH(CH2OH)2)Gly = O=C(O)CNC(CO)CO; N(octyl)Gly = CCCCCCCCNCC(=O)O; NHexGly = CCCCCCNCC(=O)O; For = O=C*
Labelling: Particle Size reported below 90 nm becomes true (1); at or above becomes false (0).

[[record]]
molecule = "CCCCCCCC(=O)OCCCN(C=O)CC(=O)N(CCCOC(=O)CCCCCCC)CC(=O)N(CCSSCC(CC)CCCC)CC(=O)N(CCCN1CCOCC1)CC(=O)N(CCSSCC(CC)CCCC)CC(=O)N(CCCOC(=O)CCCCCCC)CC(=O)N(CCCOC(=O)CCCCCCC)CC(N)=O (stereo not drawn) [Compound 133] (For-[Gly(N-(CH2)3O-octanoyl)][Gly(N-(CH2)3O-octanoyl)][X1][Gly(N-3-morpholinopropyl)][X1][Gly(N-(CH2)3O-octanoyl)][Gly(N-(CH2)3O-octanoyl)]-NH2)"
answer_label = "true (1)"


Please let me know if CCCCCCCCCC(=O)OCCCN(CC(N)=O)C(=O)CN(CC(CC)CCCC)C(=O)CN(CCCOC(=O)CCCCCCCCC)C(=O)CN(CCCOC(=O)CCCCCCCCC)C(=O)CN(CCCOC(=O)CCCCCCCCC)C(=O)CN(CC(CC)CCCC)C(=O)CNC(CO)CO (stereo not drawn) [Compound 103] (H-[N(CH(CH2OH)2)Gly][N(2-ethylhexyl)Gly][Gly(N-(3-decanoyloxypropyl))][Gly(N-(3-decanoyloxypropyl))][Gly(N-(3-decanoyloxypropyl))][N(2-ethylhexyl)Gly][Gly(N-(3-decanoyloxypropyl))]-NH2) shows Particle Size below 90 nm. true (1)

Just wondering, is Particle Size of CCCCCCCC(=O)OCCN(CC(=O)N(CC(=O)N(CC(=O)N(CCOC(=O)CCCCCCC)CC(=O)N(CC(N)=O)CC(CC)CCCC)CC(CC)CCCC)CC(CC)CCCC)C(=O)CN(CC(CC)CCCC)C(=O)CNC(CO)CO (stereo not drawn) [Compound 1] (H-[N(CH(CH2OH)2)Gly][N(2-ethylhexyl)Gly][X6][N(2-ethylhexyl)Gly][N(2-ethylhexyl)Gly][X6][N(2-ethylhexyl)Gly]-NH2) below 90 nm? true (1)

Given the entry CCCCCCCCCC(=O)OCCCN(CC(=O)N(CC(N)=O)CC(CC)CCCC)C(=O)CN(CCCCCCCC)C(=O)CN(CC(CC)CCCC)C(=O)CN(CCCOC(=O)CCCCCCCCC)C(=O)CN(CCCCCCCC)C(=O)CN(C=O)CCCN1CCOCC1 (stereo not drawn) [Compound 110] (For-[Gly(N-3-morpholinopropyl)][N(octyl)Gly][Gly(N-(3-decanoyloxypropyl))][N(2-ethylhexyl)Gly][N(octyl)Gly][Gly(N-(3-decanoyloxypropyl))][N(2-ethylhexyl)Gly]-NH2) , would its reported Particle Size be below 90 nm? false (0)

Quick check: does CCCCCCCCCCCC(=O)OCCCN(CC(=O)N(CCCOC(=O)CCCCCCCCCCC)CC(=O)N(CC(=O)N(CCCOC(=O)CCCCCCCCCCC)CC(=O)N(CCCOC(=O)CCCCCCCCCCC)CC(=O)N(CC(N)=O)CC(CC)CCCC)CC(CC)CCCC)C(=O)CNCCCn1ccnc1 (stereo not drawn) [Compound 68] (H-[N(3-imidazol-1-ylpropyl)Gly][N(3-lauroyloxypropyl)Gly][N(3-lauroyloxypropyl)Gly][N(2-ethylhexyl)Gly][N(3-lauroyloxypropyl)Gly][N(3-lauroyloxypropyl)Gly][N(2-ethylhexyl)Gly]-NH2) have Particle Size under 90 nm? true (1)

Lab note: Particle Size threshold 90 nm. Does this molecule come in strictly under it? CCCCCCCCCCCC(=O)OCCCN(CC(=O)N(CCCOC(=O)CCCCCCCCCCC)CC(=O)N(CCCCCC)CC(=O)N(CCCOC(=O)CCCCCCCCCCC)CC(=O)N(CCCOC(=O)CCCCCCCCCCC)CC(=O)N(CCCCCC)CC(N)=O)C(=O)CN(C=O)CCCN1CCOCC1 [Compound 71] (For-[Gly(N-3-morpholinopropyl)][N(3-lauroyloxypropyl)Gly][N(3-lauroyloxypropyl)Gly][NHexGly][N(3-lauroyloxypropyl)Gly][N(3-lauroyloxypropyl)Gly][NHexGly]-NH2) true (1)

Lab note: confirm whether the reported Particle Size for this molecule is below 90 nm, equality not counting. molecule: CCCCCCCCCC(=O)OCCCN(CC(N)=O)C(=O)CN(CCCOC(=O)CCCCCCCCC)C(=O)CN(CC(CC)CCCC)C(=O)CN(CCCOC(=O)CCCCCCCCC)C(=O)CN(CCCOC(=O)CCCCCCCCC)C(=O)CN(CC(CC)CCCC)C(=O)CNC(CO)CO (stereo not drawn) [Compound 102] (H-[N(CH(CH2OH)2)Gly][N(2-ethylhexyl)Gly][Gly(N-(3-decanoyloxypropyl))][Gly(N-(3-decanoyloxypropyl))][N(2-ethylhexyl)Gly][Gly(N-(3-decanoyloxypropyl))][Gly(N-(3-decanoyloxypropyl))]-NH2) false (0)

The measurements presented in this section are drawn from patent US20260373248A1.
